target: hCD22 (Homo sapiens)
Sequence (P20273 20-326 limits assumed): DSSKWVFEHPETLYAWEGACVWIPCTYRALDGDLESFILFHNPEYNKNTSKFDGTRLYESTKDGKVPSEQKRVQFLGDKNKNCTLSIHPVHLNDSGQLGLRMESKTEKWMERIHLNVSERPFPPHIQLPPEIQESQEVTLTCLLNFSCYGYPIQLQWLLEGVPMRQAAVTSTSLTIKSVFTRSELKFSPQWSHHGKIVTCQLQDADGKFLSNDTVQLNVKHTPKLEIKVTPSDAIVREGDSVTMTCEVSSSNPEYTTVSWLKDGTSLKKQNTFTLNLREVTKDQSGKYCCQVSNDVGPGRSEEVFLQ
assay-remarks: Competition ELISA
Format: binding
The label is true for IC50 below 3000 nM and false for IC50 equal to or exceeding 3000 nM.

COc1ccc(O[C@@H]2O[C@H](CO[C@]3(C(=O)O)C[C@H](O)[C@@H](NC(=O)CO)[C@H]([C@H](O)[C@H](O)CNCc4ccc(-c5ccc(O)cc5)cc4)O3)[C@H](O)[C@H](O)[C@H]2O)cc1 [Compound 2, reference compound]
false
O=C(CO)N[C@H]1[C@H]([C@H](O)[C@H](O)CNCc2ccc(-c3ccc(O)cc3)cc2)O[C@@](OCc2ccc(-c3ccccc3)cc2)(C(=O)O)C[C@@H]1O
true
O=C(Cc1ccc(-c2ccc(O)cc2)cc1)NC[C@@H](O)[C@@H](O)[C@@H]1O[C@@](OCc2ccccc2)(C(=O)O)C[C@H](O)[C@H]1NC(=O)CO
true
COc1ccc(O[C@@H]2O[C@H](CO[C@]3(C(=O)O)C[C@H](O)[C@@H](NC(=O)CO)[C@H]([C@H](O)[C@H](O)CNC(=O)Cc4ccc(-c5ccc(O)cc5)cc4)O3)[C@H](O)[C@H](O)[C@H]2O)cc1 [Compound 1, reference compound]
false
O=C(Cc1ccc(-c2ccc(O)cc2)cc1)NC[C@@H](O)[C@@H](O)[C@@H]1O[C@@](OCc2ccc(-c3ccccc3)cc2)(C(=O)O)C[C@H](O)[C@H]1NC(=O)CO
true
O=C(CO)N[C@H]1[C@H]([C@H](O)[C@H](O)CNCc2ccc(-c3ccc(O)cc3)cc2)O[C@@](OCc2ccccc2)(C(=O)O)C[C@@H]1O
true
